- Test system: A549 NSCLC
- experiment-description: NCI tumour cell line growth inhibition, 48 h; in the data active = GI50 below about 0.43 µM; inactive = the rest
Possible outcomes: t (active), f (inactive)

1. CC(C)=O.O=C([O-])C(F)(F)F.O=C([O-])C(F)(F)F.O=C([O-])C(F)(F)F.O=C([O-])C(F)(F)F.[Rh+2].[Rh+2] : f
2. C=C1C(=O)O[C@H]2[C@H]1CC/C(Cn1cc(Cc3c[nH]c4ccccc34)nn1)=C\CC[C@@]1(C)O[C@@H]21 : f
3. O=C(O)/C=C/c1ccc[c]([Sb](=[O])([OH])[OH])c1 : f
4. CC/C=C\C[C@H](O)C/C=C1/C(=O)C=C[C@@H]1C/C=C\CCCC(=O)OC(C)C : f
5. Cc1ccc2[nH]c3c(c2c1)N=c1ccccc1=NO3 : f
6. COc1cc(OC)c(/C=C/C(=O)c2ccc(Nc3ncnc4ccccc34)cc2)c(OC)c1 : f
7. CC(=O)O[C@@]12CO[C@@H]1C[C@H](O)[C@@]1(C)C(=O)[C@H](O)C3=C(C)[C@@H](OC(=O)[C@H](O)[C@@H](NC(=O)OC(C)(C)C)c4ccccc4)C[C@@](O)([C@@H](OC(=O)c4ccccc4)C12)C3(C)C (stereo not given in full) : t
8. Clc1ccccc1[C@@H]1C[C@@H]2Cc3cc(Br)c4ccccc4c3N1O2 : f
9. O=c1cc(-c2ccccc2)oc2ccc(OC/C(=N/O)c3ccc(F)cc3)cc12 : f
10. C=C(C)[C@@H]1CC[C@]2(COCCCNCCCN)CC[C@]3(C)[C@H](CC[C@@H]4[C@@]5(C)CC[C@H](OCCCN)C(C)(C)[C@@H]5CC[C@]43C)[C@@H]12 : f

====

- System: U251 CNS
- experiment-description: NCI tumour cell line growth inhibition, 48 h
Documented TGI across a set of compounds
value-type: TGI

1) COc1ccc(N2CN(C)CSC2=S)cc1 : > 100 µM
2) Cc1cc(C(=O)Nc2cc(Oc3ccc4nc(NC(=O)C5CC5)cn4n3)ccc2C)n(C)n1 : > 10 µM
3) COCCOC(C)C(=O)C(O)S(=O)(=O)O (stereo not drawn) : > 100 µM

====

- Tested on: HOP-62 NSCLC
- experiment-description: NCI tumour cell line growth inhibition, 48 h
Documented TGI across a set of molecules
value-type: TGI (µM)

1) COc1cc(OC)cc(-c2nc3sccn3c2/C=N/N=C(N)N)c1 : 17
2) CCC[CH2][Sn]([CH2]CCC)([CH2]CCC)[O]C(=O)C(OC(C)=O)c1ccccc1 (stereo not drawn) : 0.287
3) CCCCCCCCCCCCCCCCNCC(O)CN (stereo not drawn) : 33.4
4) CC(C)(CN1CCOCC1)C(=O)/C=C/c1ccc(/C=C/C(=O)C(C)(C)CN2CCOCC2)cc1 : 4.79
5) C=CCNc1nc(O)c(/C=C2\C=Nc3ncccc32)s1 : 5.77

====

Documented TGI across a set of compounds
- Tested on: LXFL 529 NSCLC
- experiment-description: NCI tumour cell line growth inhibition, 48 h
value-type: TGI

1) O=C1NC(=O)C(=Cc2c3ccccc3cc3ccccc23)C(=O)N1 : > 100 µM
2) Cc1cc(Br)cc(C)c1NC(=O)C(=O)C(C(=O)c1ccncc1)C1OC(=O)c2ccccc21 (configuration not stated) : > 100 µM
3) CN(C)C(=S)/N=c1\ssc(=S)n1Cc1cccs1 : > 100 µM
4) N=S(=O)(c1ccccc1)c1ccccc1 : > 100 µM
5) COC1(OC)C2(Cl)C(Cl)=C(Cl)C1(Cl)C1c3ccc(C(C)=O)c4cccc(c34)C12 (configuration not stated) : > 100 µM
6) O=C(N/C(=C\c1c(O)ccc2ccccc12)c1nc2ccccc2[nH]1)c1ccccc1 : > 100 µM
7) CO[C@H]1CC[C@]2(C)C3=CC[C@@]4(C)C(CC[C@@H]4C(C)CC[C@@H](C)C(C)C)C(=CCC2C1)O3 (some centres not stated) : > 25 µM
